Cited source for all entries: patent US12384772B2

TESTED_ON: Glutaminyl cyclase (QC) (Homo sapiens (Human))
Sequence (Q16769 29-361): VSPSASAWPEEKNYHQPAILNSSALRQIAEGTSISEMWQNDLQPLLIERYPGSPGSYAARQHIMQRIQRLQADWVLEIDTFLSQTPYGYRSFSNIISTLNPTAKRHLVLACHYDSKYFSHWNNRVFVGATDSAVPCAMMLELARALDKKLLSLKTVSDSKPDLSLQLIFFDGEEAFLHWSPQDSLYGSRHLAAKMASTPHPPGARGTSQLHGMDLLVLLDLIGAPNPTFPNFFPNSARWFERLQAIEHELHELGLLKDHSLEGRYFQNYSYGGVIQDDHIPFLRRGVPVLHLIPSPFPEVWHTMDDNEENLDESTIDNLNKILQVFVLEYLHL
TEST_NAME: Glutaminyl cyclase assay, determination of IC50 values and calculation of Ki values (H-Gln-AMC substrate, pGAP auxiliary enzyme; pH 8.0 or pH 6.0)
Type: biochemical
MEASUREMENT_CONTEXT: pH 6, read-out: hQC Ki [μM] pH6
MEASURE_NAME: Ki
Quote the value and follow it with the unit of measurement.

Jot down Ki (Glutaminyl cyclase (QC) (Homo sapiens (Human))) of CC(C)Oc1ccc(-c2ccccc2NCc2ccc3[nH]cnc3c2)cc1 [O19] .
1.53 µM

Jot down Ki (Glutaminyl cyclase (QC) (Homo sapiens (Human))) of COc1ccc(-c2nccnc2NCc2ccc3[nH]cnc3c2)cc1 [O9] .
1.9 µM

Jot down Ki (Glutaminyl cyclase (QC) (Homo sapiens (Human))) of Cn1cnnc1SCCNS(=O)(=O)c1ccc(F)cc1 [G2] .
8.84 µM

Jot down Ki (Glutaminyl cyclase (QC) (Homo sapiens (Human))) of Nc1nnc(CCCNc2ccccc2-c2ccc(F)cc2)s1 [Comp 93] .
2.6 µM

Jot down Ki (Glutaminyl cyclase (QC) (Homo sapiens (Human))) of Nc1nnc(-c2ccc(Nc3nccnc3-c3ccc(F)cc3)cc2)s1 [C9] .
1.66 µM

Jot down Ki (Glutaminyl cyclase (QC) (Homo sapiens (Human))) of COc1ccc(-c2ccncc2NCc2ccc3[nH]cnc3c2)cc1 [O7] .
11.1 µM

Jot down Ki (Glutaminyl cyclase (QC) (Homo sapiens (Human))) of COc1ccc(-c2ccccc2NCCSc2nnc(N)s2)cc1OC [Comp 178] .
1.1 µM

Jot down Ki (Glutaminyl cyclase (QC) (Homo sapiens (Human))) of COc1ccc(-c2nccnc2NCc2ccc3[nH]cnc3c2)cc1OC [O12] .
0.13 µM

Jot down Ki (Glutaminyl cyclase (QC) (Homo sapiens (Human))) of COc1ccc(-c2ccccc2Nc2ccc(-c3nncn3C)cc2)cc1OC [Comp 854] .
0.44 µM

Jot down Ki (Glutaminyl cyclase (QC) (Homo sapiens (Human))) of COc1ccc(NS(=O)(=O)NCCSc2nncn2C)cc1OC [Comp 1332] .
13.6 µM

Jot down Ki (Glutaminyl cyclase (QC) (Homo sapiens (Human))) of Cn1cnnc1-c1ccc(Nc2ccccc2-c2ccc(Oc3ccccc3)cc2)cc1 [D6] .
1.33 µM

Jot down Ki (Glutaminyl cyclase (QC) (Homo sapiens (Human))) of Fc1cccc(NCc2ccc3[nH]cnc3c2)c1-c1ccc(Cl)cc1 [O22] .
4.89 µM

Jot down Ki (Glutaminyl cyclase (QC) (Homo sapiens (Human))) of CC(C)Oc1ccc(-c2ccccc2Nc2ccc(-c3nnc(N)s3)cc2)cc1 [C12] .
1.51 µM

Jot down Ki (Glutaminyl cyclase (QC) (Homo sapiens (Human))) of COc1ccc(-c2ccccc2NCc2ccc3[nH]cnc3c2)cc1OC [Comp 1254] .
0.12 µM

Jot down Ki (Glutaminyl cyclase (QC) (Homo sapiens (Human))) of COc1ccc(-c2ccccc2Nc2ccc(-c3nnc(N)s3)cc2)cc1 [C4] .
1.87 µM

Jot down Ki (Glutaminyl cyclase (QC) (Homo sapiens (Human))) of Fc1ccc(-c2c(F)cccc2NCc2ccc3[nH]cnc3c2)cc1 [O24] .
5.81 µM

Jot down Ki (Glutaminyl cyclase (QC) (Homo sapiens (Human))) of COc1ccc(-c2cnccc2Nc2ccc(-c3nnc(N)s3)cc2)cc1OC [C7] .
54.7 µM

Jot down Ki (Glutaminyl cyclase (QC) (Homo sapiens (Human))) of COc1ccc(-c2c(C)cccc2NCc2ccc3[nH]cnc3c2)cc1OC [O21] .
0.43 µM

Jot down Ki (Glutaminyl cyclase (QC) (Homo sapiens (Human))) of COc1ccc(-c2cnccc2Nc2ccc(-c3nnc(N)s3)cc2)cc1 [C6] .
7.16 µM

Jot down Ki (Glutaminyl cyclase (QC) (Homo sapiens (Human))) of Cn1cnnc1CCCNc1ccccc1-c1ccc(F)cc1 [Comp 328] .
1.97 µM

Jot down Ki (Glutaminyl cyclase (QC) (Homo sapiens (Human))) of c1ccc(Oc2ccc(-c3ccccc3NCc3ccc4[nH]cnc4c3)cc2)cc1 [O16] .
4.34 µM
